- Test system: SW-620 colon
- method.description: NCI tumour cell line growth inhibition, 48 h; in the data active means GI50 below about 0.43 µM; inactive means the rest
Response enum: t = active, f = inactive

Query: // outcome(item) with item = COc1ccc(C2CC(c3cccc(Nc4ccnc5cc(Cl)ccc45)c3)=NN2c2ccccc2)cc1 (stereo not given)
Reply: t

Query: // outcome(item) with item = N#CC1=C(N)Oc2c(sc3c(F)cccc23)C1c1ccc(Cl)cc1 (stereo not given)
Reply: f

Query: // outcome(item) with item = N#CC1=C(N)NC(=S)NC1c1ccc(-c2ccc(-c3nc4ccccc4s3)cc2)o1 (stereo not given)
Reply: f

Query: // outcome(item) with item = "COc1ccc(CNCCN2C(=O)c3ccc4c5c(ccc(c35)C2=O)C(=O)N(CCNCc2ccc(OC)cc2)C4=O)cc1"
Reply: t

Query: // outcome(item) with item = "COc1ccc(-n2cc(-c3ccc(Cl)cc3)[nH]c2=S)cc1Cl"
Reply: f
